Test system: CYP2B1/2
Test: Testosterone 16β-hydroxylase in rat liver microsomes
Format: biochemical
Details: Rat liver microsomes
MEASURE_NAME: IC50
Could you kindly put the unit after your number?

Exercise: Entry under review: Clc1cccc(C(c2ccc3[nH]cnc3c2)n2ccnc2)c1.Clc1cccc(C(c2ccc3[nH]cnc3c2)n2ccnc2)c1.O=C(O)/C=C/C(=O)O.O=C(O)/C=C/C(=O)O.O=C(O)/C=C/C(=O)O (racemic) [liarozole-fumarate, reference compound] . Reported IC50?
Solution: 500 nM
